# Test system: BCL2 G101V
# assay overview: TR-FRET competitive binding assay, BCL2 G101V
# Design: species or system human
# condition description: ratio of Ki BCL2 G101V to BCL2 WT
measured parameter: TR_FRET EKI G101V/WT selectivty

See these solved cases before continuing.
Cc1cc(OCCN2CCOCC2)c(F)cc1CC(=O)N1CCc2cc(-c3cc(C(=O)N(c4ccc(O)cc4)c4cc(C#N)n(C)c4C)c(C)n3C)c(C(=O)N3Cc4ccccc4C[C@H]3C)cc2C1 | 10.5
Cc1c(C(=O)N(c2ccc(O)cc2)c2cnn(C(F)F)c2)cc(-c2cc3c(cc2C(=O)N2Cc4ccccc4C[C@H]2C)CN(C(=O)Cc2ccc(OCCN4CCOCC4)cc2)CC3)n1C | 14
Cc1c(C(=O)N(c2ccc(O)cc2)c2cnn(C)c2)cc(-c2cc3c(cc2C(=O)N2Cc4ccccc4C[C@H]2C)CN(C(=O)Cc2ccc(OCCN4CCOCC4)cc2F)CC3)n1C | 8.2
Cc1c(C(=O)N(c2ccccc2)c2cc(F)cc(C#N)c2)cc(-c2cc3c(cc2C(=O)N2Cc4ccccc4C[C@H]2C)CN(C(=O)Cc2ccc(OCCN4CCOCC4)cc2F)CC3)n1C | 63.7

a. Cc1c(C(=O)N(c2ccccc2)c2cnn(C(F)F)c2)cc(-c2cc3c(cc2C(=O)N2Cc4ccccc4C[C@H]2C)CN(C(=O)Cc2ccc(OCCC4CCN(C)CC4)cc2)CC3)n1C
b. Cc1c(C(=O)N(c2ccccc2)c2cnn(C(F)F)c2)cc(-c2cc3c(cc2C(=O)N2Cc4ccccc4C[C@H]2CN2CCCCC2)CN(C(=O)Cc2ccc(OCCC4CCOCC4)cc2)CC3)n1C
Q. Lab notebook, comparison: a versus b , higher TR_FRET EKI G101V/WT selectivty goes to which? Use the label to indicate which entry you chose.
A. b
(b: 160.7, a: 16.7)

* * *

# tgt: BCL2 F104I (Homo sapiens, UniProt P10415, F104I)
# assay overview: TR-FRET competitive binding assay, BCL2 F104I
# condition description: Ki determined from IC50, read-out: TR_FRET EKI_Bcl2 F104I
measured parameter: Ki (nM)

Cc1c(N(C(=O)c2cc(-c3cc4c(cc3C(=O)N3Cc5ccccc5C[C@H]3C)CN(C(=O)Cc3ccc(OCCC5CCOCC5)cc3)CC4)n(C)c2C)c2ccc(O)cc2)cc(C#N)n1C | 2.36

1. Cc1c(N(C(=O)c2cc(-c3cc4c(cc3C(=O)N3Cc5ccccc5C[C@H]3C)CN(C(=O)Cc3ccc(OCCN5CCOCC5)cc3)CC4)n(C)c2C)c2ccccc2)cc(C#N)n1C [Example 236]
2. Cc1c(N(C(=O)c2cc(-c3cc4c(cc3C(=O)N3Cc5ccccc5C[C@H]3C)CN(C(=O)Cc3cccc(N5CCOCC5)c3)CC4)n(C)c2C)c2ccc(O)cc2)cc(C#N)n1C
3. Cc1c(N(C(=O)c2cc(-c3cc4c(cc3C(=O)N3Cc5ccccc5C[C@H]3C)CN(C(=O)Cc3ccc(OCCN5CCSCC5)cc3)CC4)n(C)c2C)c2ccc(O)cc2)cc(C#N)n1C
Q. Ascending by Ki, please. Please list the labels according to the requested order.
A. 3, 1, 2
(3: 0.3 nM, 1: 1.12 nM, 2: 2.03 nM)

* * *

# tgt: BCL2 WT (Homo sapiens (Human))
# Sequence (P10415 other isoform, or with tags, fused parts or gaps): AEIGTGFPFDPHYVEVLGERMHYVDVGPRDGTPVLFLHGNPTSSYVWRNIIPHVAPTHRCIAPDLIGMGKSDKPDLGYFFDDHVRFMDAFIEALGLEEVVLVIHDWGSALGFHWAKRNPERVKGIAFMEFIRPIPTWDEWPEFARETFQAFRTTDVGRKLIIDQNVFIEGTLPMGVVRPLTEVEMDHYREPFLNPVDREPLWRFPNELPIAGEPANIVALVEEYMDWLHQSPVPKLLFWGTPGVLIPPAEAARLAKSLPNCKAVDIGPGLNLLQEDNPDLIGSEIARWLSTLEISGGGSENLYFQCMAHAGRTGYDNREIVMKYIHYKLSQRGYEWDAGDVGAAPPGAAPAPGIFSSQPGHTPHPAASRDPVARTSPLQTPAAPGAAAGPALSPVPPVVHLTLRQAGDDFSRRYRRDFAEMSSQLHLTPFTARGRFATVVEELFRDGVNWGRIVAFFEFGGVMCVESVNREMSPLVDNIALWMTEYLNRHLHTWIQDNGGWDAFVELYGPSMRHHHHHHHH
# assay overview: TR-FRET competitive binding assay, BCL2 WT
# condition description: Ki determined from IC50, read-out: TR_FRET EKI_Bcl2 WT
measured parameter: Ki (nM)

See these solved cases before continuing.
Cc1c(N(C(=O)c2cc(-c3cc4c(cc3C(=O)N3Cc5ccccc5C[C@H]3CN3CCCCC3)CN(C(=O)Cc3ccc(OCCC5CCOCC5)cc3)CC4)n(C)c2C)c2ccc(O)cc2)cc(C#N)n1C [Example 66] | 0.08
Cc1c(N(C(=O)c2cc(-c3cc4c(cc3C(=O)N3Cc5ccccc5C[C@H]3C)CN(C(=O)Cc3ccc(Br)cc3F)CC4)n(C)c2C)c2ccc(O)cc2)cc(C#N)n1C [Example 24] | 0.53
CCN(CC)C[C@@H]1Cc2ccccc2CN1C(=O)c1cc2c(cc1-c1cc(C(=O)N(c3ccc(O)cc3)c3cc(C#N)n(C)c3C)c(C)n1C)CCN(C(=O)Cc1ccc(OCCN3CCOCC3)cc1F)C2 [Example 137] | 0.06

A. COc1ccc(N(C(=O)c2cc(-c3cc4c(cc3C(=O)N3Cc5ccccc5C[C@H]3C)CN(C(=O)Cc3ccc(OCCN5CCOCC5)cc3)CC4)n(C)c2C)c2ccc(F)cc2)cc1C#N [Example 209]
B. Cc1c(N(C(=O)c2cc(-c3cc4c(cc3C(=O)N3Cc5ccccc5C[C@H]3C)CN(C(=O)Cc3ccc(OCCN5CCO[C@@H](C)C5)cc3)CC4)n(C)c2C)c2ccc(O)cc2)cc(C#N)n1C [Example 57]
Q. Hi! Which is lower in terms of Ki, the first one A or the second one B ? Use the label to indicate which entry you chose.
A. B

Values were extracted from patent US20250179047A1.
